# EXPERIMENTAL TARGET: Probable G-protein coupled receptor 132 (Homo sapiens, UniProt Q9UNW8)
pEC50: −log10 of the molar value.
A collection of compounds and their measured pEC50

COMPOUND: CCCCC/C=C\C=C\C(O)CCCCCCCC(=O)O (racemic)
LIMIT SIGN: =
pEC50: 5.12
//
COMPOUND: C[C@H]1CC[C@@](NC(=O)c2cccc(OCc3cccnc3)c2)(C(=O)O)CC1
LIMIT SIGN: =
pEC50: 4.88
//
COMPOUND: O=C(N[C@@H](Cc1ccccc1)C(=O)O)c1cccc(OCc2cccnc2)c1
LIMIT SIGN: =
pEC50: 4.51
//
COMPOUND: CCC[C@H](NC(=O)c1cccc(OCc2cccnc2)c1)C(=O)O
LIMIT SIGN: =
pEC50: 5.53
//
COMPOUND: CC(C)[C@@H](NC(=O)c1cccc(OCc2cccnc2)c1)C(=O)O
LIMIT SIGN: =
pEC50: 4.19
//
COMPOUND: CC(c1ccccc1)C(NC(=O)c1cccc(OCc2cccnc2)c1)C(=O)O (stereo not given)
LIMIT SIGN: =
pEC50: 4.71
//
COMPOUND: CC(C)[C@H](NC(=O)c1cccc(OCc2cccnc2)c1)C(=O)O
LIMIT SIGN: =
pEC50: 5.13
//
COMPOUND: O=C(NC(Cc1ccccc1)C(=O)O)c1ccc(OCc2cccnc2)cc1 (racemic)
LIMIT SIGN: =
pEC50: 4.42
//
COMPOUND: O=C(NC(C(=O)O)C1CC1)c1cccc(OCc2cccnc2)c1 (stereo not given)
LIMIT SIGN: <
pEC50: 4.00
//
COMPOUND: O=C(N[C@@H](C(=O)O)c1ccccc1)c1cccc(OCc2cccnc2)c1
LIMIT SIGN: =
pEC50: 4.42

====

# EXPERIMENTAL TARGET: Probable G-protein coupled receptor 132 (Homo sapiens, UniProt Q9UNW8)
# Sequence (Q9UNW8 whole entry): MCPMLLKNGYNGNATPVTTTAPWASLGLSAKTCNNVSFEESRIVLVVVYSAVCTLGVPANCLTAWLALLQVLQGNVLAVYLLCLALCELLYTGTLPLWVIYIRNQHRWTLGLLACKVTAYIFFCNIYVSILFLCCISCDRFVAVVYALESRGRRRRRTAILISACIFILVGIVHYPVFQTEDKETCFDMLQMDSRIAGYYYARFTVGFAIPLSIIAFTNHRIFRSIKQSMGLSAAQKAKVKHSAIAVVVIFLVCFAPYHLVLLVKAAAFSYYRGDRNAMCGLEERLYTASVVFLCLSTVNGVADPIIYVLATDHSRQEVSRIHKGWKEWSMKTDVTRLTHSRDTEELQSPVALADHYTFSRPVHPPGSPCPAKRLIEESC
pEC50: −log10 of the molar value.
A collection of compounds and their measured pEC50

COMPOUND: CCC[C@@H](NC(=O)c1cccc(OCc2cccnc2)c1)C(=O)O
LIMIT SIGN: =
pEC50: 4.39

COMPOUND: O=C(NC(Cc1ccccc1)C(=O)O)c1cccc(OCc2ccccc2)c1 (stereo unspecified)
LIMIT SIGN: =
pEC50: 5.12

COMPOUND: O=C(N[C@H](Cc1ccc(Cl)cc1)C(=O)O)c1cccc(OCc2cccnc2)c1
LIMIT SIGN: =
pEC50: 5.12

COMPOUND: O=C(N[C@@H](CCc1ccccc1)C(=O)O)c1cccc(OCc2cccnc2)c1
LIMIT SIGN: =
pEC50: 4.16

COMPOUND: O=C1C2=C(CCN(Cc3ccccc3)C2)N2CCN=C2N1Cc1ccc(C(F)(F)F)cc1
LIMIT SIGN: =
pEC50: 5.41

COMPOUND: O=C(NC(Cc1ccccc1)C(=O)O)c1cccc(OCc2ccccn2)c1 (racemic)
LIMIT SIGN: =
pEC50: 4.92

COMPOUND: O=C(NC(C(=O)O)c1cccnc1)c1cccc(OCc2cccnc2)c1 (stereo unspecified)
LIMIT SIGN: =
pEC50: 4.10

COMPOUND: CC(NC(=O)c1cccc(OCc2cccnc2)c1)(C(=O)O)c1ccccc1 (stereo unspecified)
LIMIT SIGN: =
pEC50: 5.21

COMPOUND: COC[C@H](NC(=O)c1cccc(OCc2cccnc2)c1)C(=O)O
LIMIT SIGN: <
pEC50: 4.00

COMPOUND: O=C(NC(Cc1ccccc1)C(=O)O)c1cccc(OCc2cccnc2)c1 (stereo unspecified)
LIMIT SIGN: =
pEC50: 5.76

COMPOUND: O=C(NC(Cc1ccc(OC(F)(F)F)cc1)C(=O)O)c1cccc(OCc2cccnc2)c1 (racemic)
LIMIT SIGN: =
pEC50: 5.48

====

A collection of compounds and their measured pEC50
# EXPERIMENTAL TARGET: Probable G-protein coupled receptor 132 (Homo sapiens, UniProt Q9UNW8)
pEC50: −log10 of the molar value.

COMPOUND: O=C(NC(Cc1ccccc1Cl)C(=O)O)c1cccc(OCc2cccnc2)c1 (stereo not given)
EXPERIMENTAL TARGET: Probable G-protein coupled receptor 132 (Homo sapiens, UniProt Q9UNW8)
pEC50: 4.87
//
COMPOUND: CCCC(NC(=O)c1cccc(OCc2cccnc2)c1)C(=O)O (stereo not given)
EXPERIMENTAL TARGET: Probable G-protein coupled receptor 132 (Homo sapiens, UniProt Q9UNW8)
pEC50: 5.16
//
COMPOUND: O=C(N[C@H](Cc1ccc(C(F)(F)F)cc1)C(=O)O)c1cccc(OCc2cccnc2)c1
EXPERIMENTAL TARGET: Probable G-protein coupled receptor 132 (Homo sapiens, UniProt Q9UNW8)
pEC50: 5.06
//
COMPOUND: O=C(NC(Cc1ccccc1)C(=O)O)c1cccc(OCc2ccncc2)c1 (racemic)
EXPERIMENTAL TARGET: Probable G-protein coupled receptor 132 (Homo sapiens, UniProt Q9UNW8)
pEC50: 5.54
//
COMPOUND: O=C(NC(Cc1ccncc1)C(=O)O)c1cccc(OCc2cccnc2)c1 (stereo not given)
EXPERIMENTAL TARGET: Probable G-protein coupled receptor 132 (Homo sapiens, UniProt Q9UNW8)
pEC50: 4.30
//
COMPOUND: CCC(NC(=O)c1cccc(OCc2cccnc2)c1)C(=O)O (stereo not given)
EXPERIMENTAL TARGET: Probable G-protein coupled receptor 132 (Homo sapiens, UniProt Q9UNW8)
pEC50: 4.56
//
COMPOUND: O=C(NC(Cc1ccc(F)cc1)C(=O)O)c1cccc(OCc2cccnc2)c1 (stereo not given)
EXPERIMENTAL TARGET: Probable G-protein coupled receptor 132 (Homo sapiens, UniProt Q9UNW8)
pEC50: 5.71
//
COMPOUND: O=C(N[C@H](Cc1ccccc1)C(=O)O)c1cccc(OCc2cccnc2)c1
EXPERIMENTAL TARGET: Probable G-protein coupled receptor 132 (Homo sapiens, UniProt Q9UNW8)
pEC50: 6.09
//
COMPOUND: O=C(N[C@H](CCc1ccccc1)C(=O)O)c1cccc(OCc2cccnc2)c1
EXPERIMENTAL TARGET: Probable G-protein coupled receptor 132 (Homo sapiens, UniProt Q9UNW8)
pEC50: 4.92
//
COMPOUND: O=C(N[C@@H](CC1CCCCC1)C(=O)O)c1cccc(OCc2cccnc2)c1
EXPERIMENTAL TARGET: Probable G-protein coupled receptor 132 (Homo sapiens, UniProt Q9UNW8)
pEC50: 4.91

====

# ASSAY DETAILS: Drug concentration in male C57BL/6N mouse plasma at 1 mg/kg, iv measured after 8 hrs by LC-MS analysis
# Type: ADME, organism-based

SMI: O=C(N[C@H](Cc1ccccc1)C(=O)O)c1cccc(OCc2cccnc2)c1
concentration at 8 h (ng/mL): 2.4

====

# ASSAY DETAILS: Cytotoxicity against human HepG2 cells assessed as cell viability upto 100 uM incubated for 72 hrs by CellTiter-Glo assay relative to control
# Format: toxicity, cell-based
# ASSAY SETUP: read-out: Activity
MEASURED ATTRIBUTE: viability at 72 h, up to 100 µM

COMPOUND: O=C(NC(Cc1ccccc1)C(=O)O)c1cccc(OCc2cccnc2)c1 (configuration not stated)
VALUE: ≥ 90%

COMPOUND: O=C(N[C@H](Cc1ccccc1)C(=O)O)c1cccc(OCc2cccnc2)c1
VALUE: ≥ 90%

====

# ASSAY DETAILS: AUC (0 to 8 hrs) in male C57BL/6N mouse at 1 mg/kg, iv measured after 8 hrs by LC-MS analysis
# Assay type: ADME, organism-based
# ASSAY SETUP: in vivo

SMI: O=C(N[C@H](Cc1ccccc1)C(=O)O)c1cccc(OCc2cccnc2)c1
AUC(0-t) at 8 h (µg·h/mL): 0.0473

====

# ASSAY DETAILS: Clearance in male C57BL/6N mouse at 10 mg/kg, sc measured after 12 hrs by LC-MS analysis
# Format: ADME, organism-based
# ASSAY SETUP: in vivo
MEASURED ATTRIBUTE: CL/F

SMI: O=C(N[C@H](Cc1ccccc1)C(=O)O)c1cccc(OCc2cccnc2)c1
MEASURED ATTRIBUTE: CL/F
VALUE: 141 mL/min/kg
